# TARGET: Trp-p8 (Homo sapiens, UniProt Q7Z2W7, T58I)
# Construct: expressed in transfected cells; host or cells: CHO (Chinese Hamster Ovary) cells
# Sequence (Q7Z2W7 whole entry T58I): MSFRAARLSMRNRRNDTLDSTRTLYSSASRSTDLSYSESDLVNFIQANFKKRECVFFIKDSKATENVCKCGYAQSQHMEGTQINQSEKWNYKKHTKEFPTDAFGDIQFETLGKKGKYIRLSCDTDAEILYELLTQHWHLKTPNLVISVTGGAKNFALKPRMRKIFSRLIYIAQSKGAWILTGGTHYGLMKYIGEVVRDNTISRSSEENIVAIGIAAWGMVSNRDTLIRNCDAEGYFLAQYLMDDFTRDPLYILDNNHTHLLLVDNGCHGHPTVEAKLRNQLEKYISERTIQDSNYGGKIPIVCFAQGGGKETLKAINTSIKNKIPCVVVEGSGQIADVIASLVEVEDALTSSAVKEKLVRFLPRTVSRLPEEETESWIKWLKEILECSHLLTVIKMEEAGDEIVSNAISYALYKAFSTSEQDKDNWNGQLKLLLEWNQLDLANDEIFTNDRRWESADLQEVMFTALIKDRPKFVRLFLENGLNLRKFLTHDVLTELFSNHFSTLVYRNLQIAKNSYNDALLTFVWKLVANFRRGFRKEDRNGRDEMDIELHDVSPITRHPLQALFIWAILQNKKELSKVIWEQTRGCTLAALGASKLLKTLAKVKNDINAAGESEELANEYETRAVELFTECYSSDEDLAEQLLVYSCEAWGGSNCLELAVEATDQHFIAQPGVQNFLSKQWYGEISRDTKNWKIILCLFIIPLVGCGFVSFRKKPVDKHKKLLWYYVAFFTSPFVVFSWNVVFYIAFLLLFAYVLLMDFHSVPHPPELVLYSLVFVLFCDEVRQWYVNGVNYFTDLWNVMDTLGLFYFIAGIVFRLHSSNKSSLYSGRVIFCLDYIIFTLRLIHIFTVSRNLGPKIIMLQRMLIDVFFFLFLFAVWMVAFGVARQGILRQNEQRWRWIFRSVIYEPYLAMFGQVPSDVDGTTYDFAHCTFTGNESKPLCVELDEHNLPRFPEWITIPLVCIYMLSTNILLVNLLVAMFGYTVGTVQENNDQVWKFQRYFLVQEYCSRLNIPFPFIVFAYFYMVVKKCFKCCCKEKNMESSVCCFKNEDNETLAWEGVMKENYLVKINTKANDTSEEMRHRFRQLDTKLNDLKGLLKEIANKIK
# TEST_NAME: ATP viability assay with CHO/Trp-p8 cells at 37° C.
# Type: cell-based
# COND: Table 1, Formula I-A; CHO/Trp-p8 cells, 24-26 hours at 37° C., 50% reduction in relative cell viability; read-out: EC50

MOLECULE	EC50
CSc1ccc(NC(=O)[C@@H]2C[C@H](C)CC[C@H]2C(C)C)c(C(=O)NCCN)c1	< 0.02 µM
CSc1ccc(NC(=O)[C@@H]2C[C@H](C)CC[C@H]2C(C)C)c(NCCN)c1	< 0.02 µM
COc1ccc(NC(=O)[C@@H]2C[C@H](C)CC[C@H]2C(C)C)c(NC(=O)[C@H](N)[C@H](C)O)c1	0.051 to 0.1 µM
COc1ccc(NC(=O)[C@@H]2C[C@H](C)CC[C@H]2C(C)C)c(C(=O)NCCN)c1	< 0.02 µM
COc1ccc(NC(=O)[C@@H]2C[C@H](C)CC[C@H]2C(C)C)c(NC(=O)[C@H](N)CO)c1	0.021 to 0.05 µM
CC[C@@H](N)C(=O)Nc1cc(OC)ccc1NC(=O)[C@@H]1C[C@H](C)CC[C@H]1C(C)C	0.021 to 0.05 µM
CC(C)[C@@H]1CC[C@@H](C)C[C@H]1C(=O)Nc1ccc2ccccc2c1OCCN	< 0.02 µM
CC(C)[C@@H]1CC[C@@H](C)C[C@H]1C(=O)Nc1cc2ccccc2cc1NCCN	0.021 to 0.05 µM
COc1ccc(NC(=O)[C@@H]2C[C@H](C)CC[C@H]2C(C)C)c(NC(=O)[C@@H](N)CO)c1	0.021 to 0.05 µM
CC(C)[C@@H]1CC[C@@H](C)C[C@H]1C(=O)Nc1ccccc1C(=O)NCCN	0.021 to 0.05 µM
COc1ccc(NC(=O)[C@@H]2C[C@H](C)CC[C@H]2C(C)C)c(NC(=O)[C@@H](C)N)c1	< 0.02 µM
CC(C)[C@@H]1CC[C@@H](C)C[C@H]1C(=O)Nc1ccccc1NC(=O)CN	0.051 to 0.1 µM
COc1ccc(NC(=O)[C@@H]2C[C@H](C)CC[C@H]2C(C)C)c(NC(=O)CN)c1	0.051 to 0.1 µM

====

# TARGET: Trp-p8 (Homo sapiens, UniProt Q7Z2W7, T58I)
# Construct: expressed in transfected cells; host or cells: CHO (Chinese Hamster Ovary) cells
# TEST_NAME: ATP viability assay with CHO/Trp-p8 cells at 37° C.
# Type: cell-based
# COND: Table 3, Formula I-C; CHO/Trp-p8 cells, 24-26 hours at 37° C., 50% reduction in relative cell viability; read-out: EC50
Listed next: entries and their corresponding EC50.

MOLECULE	EC50
CC(C)[C@@H]1CC[C@@H](C)C[C@H]1C(=O)NCC(NCCN)c1ccccc1 (some centres unmarked)	51 to 100 nM
CC(C)[C@@H]1CC[C@@H](C)C[C@H]1C(=O)NCC(OCCCN)c1ccccc1 (some centres unmarked)	21 to 50 nM
CC(C)[C@@H]1CC[C@@H](C)C[C@H]1C(=O)NCC(NC(=O)[C@@H](C)N)c1ccccc1 (stereo in doubt)	< 20 nM
CC(C)[C@@H]1CC[C@@H](C)C[C@H]1C(=O)NC[C@@H](OCCN)c1ccccc1	< 20 nM
CC(C)[C@@H]1CC[C@@H](C)C[C@H]1C(=O)NCC(OCCN)c1ccccc1 (some centres unmarked)	< 20 nM
